System: RXF 393 renal
method_notes: NCI tumour cell line growth inhibition, 48 h
Use YES when the recorded TGI is no lower than 20 µM; use NO when it is lower.

Observe how each entry below is paired with its result.
• COc1ccc(N2C(=O)/C(=C\c3ccccc3)SC2c2cc(OC)c(OC)c(OC)c2)cc1 (stereo unspecified) = YES
• OCCCCn1cc(Cn2ncc3c(NCc4ccccc4)ncnc32)nn1 = YES
• CC1=C(C(=O)Nc2ccc(F)c(Cl)c2)C(c2cccc(Oc3ccccc3)c2)NC(=S)N1 (stereo unspecified) = NO

// next entry
Q. Say whether c1ccc(-c2c(-c3cccs3)[nH]c(-c3cccs3)c2-c2ccccn2)nc1 shows TGI of 20 µM or more.
A. YES

----------
Tested on: SK-MEL-2 melanoma
method_notes: NCI tumour cell line growth inhibition, 48 h
Property: GI50; scope: individual compounds

* O=C1C=C(OCC=C(C(F)(F)F)C(F)(F)F)c2ccccc2C1=O | 1850 nM

Q. Which measured GI50 value corresponds to C#CC1(O)C(COP(=O)(O)OCC2OC(n3cc(F)c(=O)[nH]c3=O)CC2O)OC(n2ccc(N)nc2=O)C1O (configuration not stated) ?
A. 55.2 nM

Q. Which measured GI50 value corresponds to COc1cc2ncnc(Nc3ccc(Oc4ccnc(C)c4)c(C)c3)c2cc1NC(=O)CC1CCSS1 (configuration not stated) ?
A. 904 nM

Q. Which measured GI50 value corresponds to O=C1Cc2cc(CCn3cncn3)c(Cl)cc2N1 ?
A. 12400 nM

Q. Which measured GI50 value corresponds to COc1ccc2c(c1)/C(=C\c1c(-c3cc(OC)ccc3OC)nc3sccn13)C(=O)N2 ?
A. 1770 nM

Q. Which measured GI50 value corresponds to CCN1C(=O)N(CC)C2C1NN=c1s/c(=C3\C(=O)N(C4CCCC4)c4ccccc43)c(=O)n12 (configuration not stated) ?
A. 2760 nM

Q. Which measured GI50 value corresponds to CCCCCCCCCCCCN=C(N)c1ccc(N2CCN(c3ccc(C(N)=NCCCCCCCCCCCC)cc3)CC2)cc1 ?
A. 17500 nM

----------
System: CAKI-1 renal
method_notes: NCI tumour cell line growth inhibition, 48 h
Where a SMILES comes first, the peptide text is derived from it. The star is where a group is joined. Cbz = O=C(OCc1ccccc1)*; Bn = c1ccc(C*)cc1
recorded_endpoint: log10 of TGI (log10 of the value in µM)
Lab note - TGI converted to log10 from values in µM.

Consider the worked cases shown below.
- Clc1ccc2c(c1)N(C1CCCN(Cc3ccccc3)C1)c1ccccc1S2 (stereo not given): 1.38
- COC(=O)CC(C(C(=O)OC)C(=O)OC)N1C(=O)OC(c2ccccc2)C1c1ccccc1 (stereo not given): 1.59
- COc1ccccc1[As]=[As]c1ccccc1OC (stereo not given): -0.69
- CC(NC1=CC(=O)c2cccnc2C1=O)C(O)c1ccccc1 (stereo not given): 0.86
- COC(=O)C(Cc1ccc(O)cc1)NC(=O)C(COCc1ccccc1)NC(=O)OCc1ccccc1 (stereo not given) (Cbz-Ser(Bn)-Tyr-OMe; configuration not given here): 1.56

Then this compound:
Q. Checklist item: log10 of TGI tested on CAKI-1 renal, entry O=C(N=c1nc(NC(=O)c2ccccc2)ss1)c1ccccc1 , value?
A. 1.88

----------
System: CCRF-CEM leukemia
method_notes: NCI tumour cell line growth inhibition, 48 h
Property: GI50; scope: individual compounds

Consider the worked cases shown below.
• CCCCCCCCCCNCCSS(=O)(=O)O = 1.86 µM
• Oc1[nH]c2ccccc2c1/C=c1/ccc2c(c1)N=C(c1ccc(C(F)(F)F)cc1)N=2 = 1.65 µM
• COc1cc2c3c(n(CCCNCCCNCCN)c(=O)c2cc1OC)-c1cc2c(cc1C3=O)OCO2 = 10.1 µM
• O=C1C=C(OCC=C(C(F)(F)F)C(F)(F)F)c2ccccc2C1=O = 1.17 µM

Q. Checklist item: GI50 tested on CCRF-CEM leukemia, entry Cn1c(=O)c(Oc2ccc(F)cc2F)cc2cnc(N[C@@H]3CCOC3)nc21 , value?
A. > 25 µM

Q. Checklist item: GI50 tested on CCRF-CEM leukemia, entry COc1ccc2c(c1)/C(=C\c1c(-c3cc(OC)ccc3OC)nc3sccn13)C(=O)N2 , value?
A. 6.91 µM

Q. Checklist item: GI50 tested on CCRF-CEM leukemia, entry CCC(C)C1=C(O)[N+]2([O-])Oc3ccc(C4=C(O)C(=O)C(c5ccc(O)cc5)=C(O)C4=O)cc3OC2(C(C)CC)C(=O)N1O (centres undefined) , value?
A. 13.1 µM

Q. Checklist item: GI50 tested on CCRF-CEM leukemia, entry O=C(/C=C/c1ccccn1)c1ccc(OCc2nnc(-c3ccc(Cl)cc3)o2)cc1 , value?
A. 1.83 µM

Q. Checklist item: GI50 tested on CCRF-CEM leukemia, entry C#C[C@@]1(O)[C@@H](CO)O[C@@H](n2cc(C(F)(F)F)c3c(N)ncnc32)[C@@H]1O , value?
A. 0.487 µM
